These data points were gathered from ChEMBL document CHEMBL1153554.

# target_or_test_system: Human immunodeficiency virus type 1 reverse transcriptase (Human immunodeficiency virus 1, UniProt Q72547, M184V)
# test: Binding affinity to HIV1 LAI reverse transcriptase M184V mutant
pKd: −log10 of the molar value.
measurement_name: pKd

                                   molecule  measurement_name  observed_result
0  Cc1cn([C@H]2C[C@H](N=[N+]=[N-])[C@@H](CO[P@](=O)(O)O[P@](=O)(O)OP(=O)(O)O)O2)c(=O)[nH]c1=O [ZIDOVUDINE TRIPHOSPHATE]               pKd             5.54
1  Cc1cn([C@H]2C[C@H](O)[C@@H](COP(=O)(O)OP(=O)(O)OP(=O)(O)O)O2)c(=O)[nH]c1=O [DEOXYTHYMIDINE_TRIPHOSPHATE]               pKd             5.55
2  Nc1ccn([C@@H]2CS[C@H](COP(=O)(O)OP(=O)(O)OP(=O)(O)O)O2)c(=O)n1 [LAMIVUDINE TRIPHOSPHATE]               pKd             5.09
3  Nc1ccn([C@H]2C[C@H](O)[C@@H](COP(=O)(O)OP(=O)(O)OP(=O)(O)O)O2)c(=O)n1 [DEOXYCYTIDINE TRIPHOSPHATE]               pKd             5.60

====

# target_or_test_system: Human immunodeficiency virus type 1 reverse transcriptase (Human immunodeficiency virus 1, UniProt Q72547, L210W/M184V/M41L/T215Y)
# test: Binding affinity to HIV1 LAI reverse transcriptase M41L/L210W/T215Y/M184V mutant
measurement_name: Kd

In [3]: df
Out[3]:
                                   compound  observed_result
0  Nc1ccn([C@H]2C[C@H](O)[C@@H](COP(=O)(O)OP(=O)(O)OP(=O)(O)O)O2)c(=O)n1 [DEOXYCYTIDINE TRIPHOSPHATE]          2.99 µM
1  Cc1cn([C@H]2C[C@H](O)[C@@H](COP(=O)(O)OP(=O)(O)OP(=O)(O)O)O2)c(=O)[nH]c1=O [DEOXYTHYMIDINE_TRIPHOSPHATE]          2.65 µM
2  Cc1cn([C@H]2C[C@H](N=[N+]=[N-])[C@@H](CO[P@](=O)(O)O[P@](=O)(O)OP(=O)(O)O)O2)c(=O)[nH]c1=O [ZIDOVUDINE TRIPHOSPHATE]           3.5 µM
3  Nc1ccn([C@@H]2CS[C@H](COP(=O)(O)OP(=O)(O)OP(=O)(O)O)O2)c(=O)n1 [LAMIVUDINE TRIPHOSPHATE]           9.8 µM

====

# test: Binding affinity to HIV1 LAI reverse transcriptase M41L/L210W/T215Y/K65R/G333D mutant assessed as ATP-mediated excision of zidovudine-monophosphate terminated DNA/DNA template/primer duplex chain at 100 uM by gel shift mobility assay
# Design: species or system Human immunodeficiency virus 1
measurement_name: Kd (nM)

In [3]: df
Out[3]:
                                   compound  measurement_name  uom  observed_result
0  Cc1cn([C@H]2C[C@H](N=[N+]=[N-])[C@@H](COP(=O)(O)O)O2)c(=O)[nH]c1=O [AZIDOTHYMIDINE MONOPHOSPHATE]                Kd   nM             22.3
